Source listed as ChEMBL document CHEMBL1201862.

- System: NCI-H23
- assay.procedure: NCI tumour cell line growth inhibition, 48 h
Calls of active or inactive are those of the source. Rule as the data show it: active = GI50 up to about 1.1 µM and inactive = higher.
attribute.measured: GI50

Quick check: GI50 of CCC1CCc2c(OC)ccc(OCC(=O)O)c2C1=O (stereo not given) ? > 100 µM (inactive)

---

- Test system: SK-MEL-28
- assay.procedure: NCI tumour cell line growth inhibition, 48 h
Calls of active or inactive are those of the source. Cut-off read from the data, not from the text of the source: active = GI50 up to about 1.1 µM and inactive = higher.
Assign a class; possible classes are active, inactive

> print(dat)
                                   molecule  label.value
1  S=C(NCCc1ccccn1)N/N=C(\c1ccccc1)c1ccccn1     inactive
2  COc1ccc(C(CC(=O)c2ccc3c(c2)OCO3)c2c(O)oc3ccccc3c2=O)cc1OC (configuration not stated)     inactive
3  OC(c1ccoc1)c1cc2ccccc2s1 (configuration not stated)     inactive
4  CC(C)(C)c1cc(C(=O)/C=C/c2ccc(C(=O)O)cc2)cc(C(C)(C)C)c1     inactive
5  C=C(C)C(=O)O[C@H]1[C@H]2[C@H](OC(=O)[C@H]2C)[C@H](O)[C@@H](C)[C@@H]2C=CC(=O)[C@]21C     inactive
6  CCCCCCC1CC(=O)C1(Cl)Cl (configuration not stated)     inactive
7  NC(C(=O)O)C(O)c1c[nH]cn1 (configuration not stated)     inactive
8  C=C1C(C(=O)OC)[C@H]1C(=O)OC (some centres not stated)     inactive

Hi, do you know how Cc1cc2c(Br)cc(Br)c(O)c2nc1C(=O)c1ccccc1 came out in this test? inactive

Try this molecule next: O=C1C=C(Cl)C(=O)C(c2ccc(Cl)cc2)=C1 inactive
